Reference for the values: patent US9611256B2

# Test system: P-gp, MRP1 and BCRP transporters
# protocol.summary: Selectivity for ABC transporters, determined from % of reversion (Tables 1 and 2)
# Assay type: cell-based, human
# condition.details: determined from % of reversion in Table 1 (>80% strongly, 79-50% moderately selective)
measure: Selectivity for ABC transporters (P-gp, MRP1, BCRP)

[[record]]
molecule = "[N-]=[N+]=NCCOCCOc1ccc(-c2oc3ccccc3c(=O)c2OCc2ccccc2)cc1 [Az10]"
endpoint_result = "mono-BCRP selectivity"

[[record]]
molecule = "Cc1ccc2oc(-c3ccc(OCCOCCOCCn4cc(CN(CCOc5ccc6c(=O)cc(-c7ccccc7)oc6c5)Cc5ccccc5)nn4)cc3)cc(=O)c2c1 [Ac16Az3]"
endpoint_result = "mono-MRP1 selectivity"

[[record]]
molecule = "O=c1cc(-c2ccccc2)oc2cc(OCCOCCOCCn3cc(CN(Cc4ccccc4)Cc4cn(CCOCCOCCOc5ccc6c(=O)cc(-c7ccccc7)oc6c5)nn4)nn3)ccc12 [Ac15Az12]"
endpoint_result = "mono-BCRP selectivity"

[[record]]
molecule = "[N-]=[N+]=NCCOCCOCCOc1ccc(-c2cc(=O)c3cc(Cl)cc(Cl)c3o2)cc1 [Az6]"
endpoint_result = "mono-BCRP selectivity"

[[record]]
molecule = "Cc1ccc2oc(-c3ccc(OCCCCc4cn(CCOCCOCCOc5ccc(-c6cc(=O)c7ccccc7o6)cc5)nn4)cc3)cc(=O)c2c1 [Ac5Az2]"
endpoint_result = "mono-MRP1 selectivity"

[[record]]
molecule = "O=c1cc(-c2ccccc2)oc2cc(OCCN(Cc3ccccc3)Cc3cn(CCOCCOCCOc4ccc(-c5oc6ccccc6c(=O)c5OCc5ccccc5)cc4)nn3)ccc12 [Ac16Az5]"
endpoint_result = "mono-MRP1 selectivity"

[[record]]
molecule = "Cc1ccc2oc(-c3ccc(OCCCCc4cn(CCOCCOCCOc5ccc6c(=O)cc(-c7ccccc7)oc6c5)nn4)cc3)cc(=O)c2c1 [Ac5Az12]"
endpoint_result = "mono-BCRP selectivity"


###

List of EC50 values.
# test.system: MRP1 (Homo sapiens)
# protocol.summary: cell-based
measure: EC50 (nM)

[[record]]
chemical_structure = "O=c1cc(-c2ccccc2)oc2cc(OCCCCc3cn(CCOCCOCCOc4ccc5c(=O)cc(-c6ccccc6)oc5c4)nn3)ccc12"
measure = "EC50"
u = "nM"
endpoint_result = 168

[[record]]
chemical_structure = "O=c1cc(-c2ccc(OCCOCCn3cc(CCCCOc4ccc5c(=O)cc(-c6ccccc6)oc5c4)nn3)cc2)oc2ccccc12"
measure = "EC50"
u = "nM"
endpoint_result = 84

[[record]]
chemical_structure = "Cc1ccc2oc(-c3ccc(OCCCCc4cn(CCOCCOc5ccc6c(=O)cc(-c7ccccc7)oc6c5)nn4)cc3)cc(=O)c2c1"
measure = "EC50"
u = "nM"
endpoint_result = 135

[[record]]
chemical_structure = "O=c1cc(-c2ccccc2)oc2cc(OCCCCc3cn(CCOCCOc4ccc(-c5cc(=O)c6cc(F)ccc6o5)cc4)nn3)ccc12"
measure = "EC50"
u = "nM"
endpoint_result = 93.3

[[record]]
chemical_structure = "Cc1ccc2oc(-c3ccc(OCCOCCOCCn4cc(CN(Cc5ccccc5)Cc5cn(CCOCCOCCOc6ccc(-c7cc(=O)c8cc(C)ccc8o7)cc6)nn5)nn4)cc3)cc(=O)c2c1"
measure = "EC50"
u = "nM"
endpoint_result = 535

[[record]]
chemical_structure = "O=c1cc(-c2ccccc2)oc2cc(OCCCCc3cn(CCOCCOc4ccc5c(=O)cc(-c6ccccc6)oc5c4)nn3)ccc12"
measure = "EC50"
u = "nM"
endpoint_result = 169

[[record]]
chemical_structure = "O=c1cc(-c2ccc(OCCOCCOCCn3cc(CN(Cc4ccccc4)Cc4cn(CCOCCOCCOc5ccc(-c6cc(=O)c7ccccc7o6)cc5)nn4)nn3)cc2)oc2ccccc12"
measure = "EC50"
u = "nM"
endpoint_result = 550


###

# test.system: BCRP (Homo sapiens)
# protocol.summary: cell-based
pEC50: −log10 of the molar value.
List of pEC50 values.
measure: pEC50

[[record]]
chemical_structure = "COC(=O)c1cccc(COc2c(-c3ccc(OCCOCCOCCn4cc(CN(Cc5ccccc5)Cc5cn(CCOCCOCCOc6ccc(-c7oc8ccccc8c(=O)c7OCc7cccc(C(=O)OC)c7)cc6)nn5)nn4)cc3)oc3ccccc3c2=O)c1"
test_system = "BCRP (Homo sapiens)"
bound_sign = "≥"
endpoint_result = 8.00

[[record]]
chemical_structure = "O=c1c(OCc2ccccc2)c(-c2ccc(OCCOCCOCCn3cc(CN(Cc4ccccc4)Cc4cn(CCOCCOCCOc5ccc(-c6oc7ccccc7c(=O)c6OCc6ccccc6)cc5)nn4)nn3)cc2)oc2ccccc12"
test_system = "BCRP (Homo sapiens)"
bound_sign = "="
endpoint_result = 7.32

[[record]]
chemical_structure = "COC(=O)c1cccc(COc2c(-c3ccc(OCCOCCn4cc(COCCOc5ccc6c(=O)cc(-c7ccccc7)oc6c5)nn4)cc3)oc3ccccc3c2=O)c1"
test_system = "BCRP (Homo sapiens)"
bound_sign = "≥"
endpoint_result = 8.00

[[record]]
chemical_structure = "O=c1cc(-c2ccccc2)oc2cc(OCCCCc3cn(CCOCCOc4ccc5c(=O)cc(-c6ccccc6)oc5c4)nn3)ccc12"
test_system = "BCRP (Homo sapiens)"
bound_sign = "="
endpoint_result = 7.52

[[record]]
chemical_structure = "COC(=O)c1cccc(COc2c(-c3ccc(OCCOCCOCCn4cc(CCCCOc5ccc6c(=O)cc(-c7ccccc7)oc6c5)nn4)cc3)oc3ccccc3c2=O)c1"
test_system = "BCRP (Homo sapiens)"
bound_sign = "≥"
endpoint_result = 8.00


###

# test.system: BCRP (Homo sapiens)
# Sequence (Q9UNQ0 1-655): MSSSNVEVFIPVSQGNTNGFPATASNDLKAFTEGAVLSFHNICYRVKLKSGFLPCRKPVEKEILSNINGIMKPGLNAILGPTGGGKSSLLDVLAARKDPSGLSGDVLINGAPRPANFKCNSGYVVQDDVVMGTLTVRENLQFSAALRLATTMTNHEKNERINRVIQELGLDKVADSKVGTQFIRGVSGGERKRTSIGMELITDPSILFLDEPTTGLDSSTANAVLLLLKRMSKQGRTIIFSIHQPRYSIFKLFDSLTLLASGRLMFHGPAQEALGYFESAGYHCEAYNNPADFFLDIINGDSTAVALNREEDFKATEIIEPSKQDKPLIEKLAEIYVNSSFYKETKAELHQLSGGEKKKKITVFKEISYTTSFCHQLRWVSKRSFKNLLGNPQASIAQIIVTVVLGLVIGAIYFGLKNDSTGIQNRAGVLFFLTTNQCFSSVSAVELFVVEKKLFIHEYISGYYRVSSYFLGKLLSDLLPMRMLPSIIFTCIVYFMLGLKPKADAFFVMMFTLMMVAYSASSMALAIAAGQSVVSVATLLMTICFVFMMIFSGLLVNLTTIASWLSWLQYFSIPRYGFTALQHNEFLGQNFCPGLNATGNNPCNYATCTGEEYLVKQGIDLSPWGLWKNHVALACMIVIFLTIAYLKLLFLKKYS
# protocol.summary: cell-based
pEC50: −log10 of the molar value.
measure: pEC50

[[record]]
chemical_structure = "O=c1cc(-c2ccc(OCCOCCn3cc(CN(Cc4ccccc4)Cc4cn(CCOCCOc5ccc(-c6cc(=O)c7ccccc7o6)cc5)nn4)nn3)cc2)oc2ccccc12"
measure = "pEC50"
bound_sign = "="
endpoint_result = 6.95

[[record]]
chemical_structure = "COC(=O)c1cccc(COc2c(-c3ccc(OCCOCCOCCn4cc(COCCOc5ccc6c(=O)cc(-c7ccccc7)oc6c5)nn4)cc3)oc3ccccc3c2=O)c1"
measure = "pEC50"
bound_sign = "≥"
endpoint_result = 8.00

[[record]]
chemical_structure = "COC(=O)c1cccc(COc2c(-c3ccc(OCCOCCn4cc(CCCCOc5ccc(-c6cc(=O)c7cc(C)ccc7o6)cc5)nn4)cc3)oc3ccccc3c2=O)c1"
measure = "pEC50"
bound_sign = "≥"
endpoint_result = 8.00

[[record]]
chemical_structure = "Cc1ccc2oc(-c3ccc(OCCOCCOCCn4cc(CN(Cc5ccccc5)Cc5cn(CCOCCOCCOc6ccc(-c7cc(=O)c8cc(C)ccc8o7)cc6)nn5)nn4)cc3)cc(=O)c2c1"
measure = "pEC50"
bound_sign = "="
endpoint_result = 7.44

[[record]]
chemical_structure = "COC(=O)c1cccc(COc2c(-c3ccc(OCCOCCn4cc(CCCCOc5ccc6c(=O)cc(-c7ccccc7)oc6c5)nn4)cc3)oc3ccccc3c2=O)c1"
measure = "pEC50"
bound_sign = "≥"
endpoint_result = 8.00

[[record]]
chemical_structure = "[N-]=[N+]=NCCOCCOc1ccc(-c2oc3ccccc3c(=O)c2OCc2ccccc2)cc1"
measure = "pEC50"
bound_sign = "="
endpoint_result = 7.49


###

List of pEC50 values.
# test.system: MRP1 (Homo sapiens, UniProt P33527)
# Sequence (P33527 whole entry): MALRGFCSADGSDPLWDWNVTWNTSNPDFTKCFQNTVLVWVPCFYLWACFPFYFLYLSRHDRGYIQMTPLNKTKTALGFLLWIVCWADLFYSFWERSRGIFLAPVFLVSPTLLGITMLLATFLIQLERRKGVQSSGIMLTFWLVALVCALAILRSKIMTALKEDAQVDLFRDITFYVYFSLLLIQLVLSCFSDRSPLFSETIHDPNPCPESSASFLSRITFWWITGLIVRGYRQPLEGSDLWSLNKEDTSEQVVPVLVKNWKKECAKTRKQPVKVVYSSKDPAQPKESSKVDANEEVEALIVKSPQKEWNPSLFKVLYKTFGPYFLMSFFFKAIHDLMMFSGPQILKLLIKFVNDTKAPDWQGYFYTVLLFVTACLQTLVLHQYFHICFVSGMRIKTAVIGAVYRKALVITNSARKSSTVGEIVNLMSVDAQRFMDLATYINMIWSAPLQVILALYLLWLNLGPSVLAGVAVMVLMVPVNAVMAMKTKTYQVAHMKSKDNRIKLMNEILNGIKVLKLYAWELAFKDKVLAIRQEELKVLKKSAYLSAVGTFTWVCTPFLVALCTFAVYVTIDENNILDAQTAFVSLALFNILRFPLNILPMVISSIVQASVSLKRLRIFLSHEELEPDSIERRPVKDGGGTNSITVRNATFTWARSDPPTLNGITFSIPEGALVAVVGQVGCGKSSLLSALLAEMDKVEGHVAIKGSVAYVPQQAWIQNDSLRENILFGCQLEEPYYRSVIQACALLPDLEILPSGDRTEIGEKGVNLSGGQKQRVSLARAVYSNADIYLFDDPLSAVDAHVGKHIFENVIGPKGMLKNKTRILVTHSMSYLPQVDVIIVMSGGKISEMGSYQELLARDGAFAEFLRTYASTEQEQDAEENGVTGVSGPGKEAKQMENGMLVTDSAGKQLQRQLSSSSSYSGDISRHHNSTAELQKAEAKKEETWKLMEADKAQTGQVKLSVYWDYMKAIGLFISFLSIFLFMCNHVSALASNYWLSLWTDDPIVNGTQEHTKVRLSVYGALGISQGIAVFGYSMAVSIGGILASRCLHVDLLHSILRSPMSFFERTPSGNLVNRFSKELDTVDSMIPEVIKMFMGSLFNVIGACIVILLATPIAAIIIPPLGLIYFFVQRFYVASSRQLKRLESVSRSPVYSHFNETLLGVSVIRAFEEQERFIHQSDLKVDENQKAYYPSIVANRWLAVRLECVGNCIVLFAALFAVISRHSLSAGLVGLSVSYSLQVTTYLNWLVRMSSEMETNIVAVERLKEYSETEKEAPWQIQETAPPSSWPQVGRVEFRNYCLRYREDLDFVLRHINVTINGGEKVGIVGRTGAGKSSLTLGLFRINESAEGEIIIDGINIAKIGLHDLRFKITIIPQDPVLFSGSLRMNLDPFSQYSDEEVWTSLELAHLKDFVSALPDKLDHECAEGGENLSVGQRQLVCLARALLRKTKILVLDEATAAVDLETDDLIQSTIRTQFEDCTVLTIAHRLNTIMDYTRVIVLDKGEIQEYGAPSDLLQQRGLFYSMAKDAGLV
# protocol.summary: cell-based
pEC50: −log10 of the molar value.
measure: pEC50

[[record]]
chemical_structure = "O=c1cc(-c2ccccc2)oc2cc(OCCN(Cc3ccccc3)Cc3cn(CCOCCOc4ccc(-c5cc(=O)c6cc(F)ccc6o5)cc4)nn3)ccc12"
measure = "pEC50"
endpoint_result = 6.91

[[record]]
chemical_structure = "Cc1ccc2oc(-c3ccc(OCCCCc4cn(CCOCCOc5ccc(-c6cc(=O)c7ccccc7o6)cc5)nn4)cc3)cc(=O)c2c1"
measure = "pEC50"
endpoint_result = 6.60

[[record]]
chemical_structure = "O=c1cc(-c2ccc(OCCOCCOCCn3cc(CN(Cc4ccccc4)Cc4cn(CCOCCOCCOc5ccc(-c6cc(=O)c7ccccc7o6)cc5)nn4)nn3)cc2)oc2ccccc12"
measure = "pEC50"
endpoint_result = 6.28

[[record]]
chemical_structure = "O=c1cc(-c2ccc(OCCOCCn3cc(CCCOc4ccc5c(=O)cc(-c6ccccc6)oc5c4)nn3)cc2)oc2ccccc12"
measure = "pEC50"
endpoint_result = 6.84

[[record]]
chemical_structure = "O=c1cc(-c2ccccc2)oc2cc(OCCN(Cc3ccccc3)Cc3cn(CCOc4ccc5c(=O)cc(-c6ccccc6)oc5c4)nn3)ccc12"
measure = "pEC50"
endpoint_result = 6.23

[[record]]
chemical_structure = "O=c1cc(-c2ccc(OCCCc3cn(CCOCCOc4ccc(-c5cc(=O)c6ccccc6o5)cc4)nn3)cc2)oc2ccccc12"
measure = "pEC50"
endpoint_result = 6.89

[[record]]
chemical_structure = "COCOc1cc(O)c2c(=O)cc(-c3ccc(OCCCc4cn(CCOCCOc5ccc(-c6cc(=O)c7ccccc7o6)cc5)nn4)cc3)oc2c1"
measure = "pEC50"
endpoint_result = 6.96

